- test-description: in vitro
- conditions-used: rat, hepatocytes
assay-metric: hepatocyte CLint at 1 µM (µL/min/1e6 cells)

1) CS(=O)(=O)C1(c2cc(N3CCOCC3)nc(-c3cccc4[nH]ccc34)n2)CCNCC1 : 9.4

(A) CS(=O)(=O)C1(c2cc(N3CCOCC3)nc(-c3cccc4[nH]ccc34)n2)CCOCC1
(B) CC(C)(c1cc(N2CCOCC2)nc(-c2cccc3[nH]ccc23)n1)S(C)(=O)=O
Could you check which of A and B has a smaller value for hepatocyte CLint at 1 µM? Lab note: record the label of whichever item you select.
A
(A: 23 µL/min/1e6 cells, B: 41 µL/min/1e6 cells)

---

- test-description: physchem
- conditions-used: octanol/buffer, pH 7.4
assay-metric: logD

Some solved entries appear below for comparison.
1) CS(=O)(=O)C1(c2cc(N3CCOCC3)nc(-c3cccc4[nH]ccc34)n2)CCOCC1 : 2.4
2) CN1CCC(c2cc(N3CCOCC3)nc(-c3cccc4[nH]ccc34)n2)(S(C)(=O)=O)CC1 : 1.9
3) CS(=O)(=O)C1(c2cc(N3CCOCC3)nc(-c3cccc4[nH]ccc34)n2)CC1 : 2.2

(1) CC[C@@H]1COCCN1c1cc(C2(S(C)(=O)=O)CC2)nc(-c2cccc3[nH]ccc23)n1
(2) CS(=O)(=O)Cc1cc(N2CCOCC2)nc(-c2cccc3[nH]ccc23)n1
(3) CS(=O)(=O)C1(c2cc(N3CCOCC3)nc(-c3cccc4[nH]ccc34)n2)CCNCC1
Order these by logD, descending, and give the full ranking. Please list each label once, in the requested order.
1, 2, 3

---

- tested-on: Serine/threonine-protein kinase ATR (Homo sapiens)
- Format: cell-based, HT-29
pIC50: −log10 of the molar value.
assay-metric: pIC50

(P) CC(C)S(=O)(=O)C1(c2cc(N3CCOCC3)nc(-c3cccc4[nH]ccc34)n2)CC1
(Q) CN(C)C(=O)c1cc(-c2nc(N3CCOCC3)cc(C3(S(C)(=O)=O)CC3)n2)c2cc[nH]c2c1
// pick larger pIC50 from pair: P vs Q Record your answer as the label of the chosen record.
P

---

- test-description: Apparent permeability from apical to basolateral side in human Caco2 cells at 10 uM at pH 6.5
- Assay type: ADME, cell-based
- conditions-used: Caco-2, pH 6.5
assay-metric: Papp A→B at 10 µM (×10⁻⁶ cm/s)

1) C[C@@H]1COCCN1c1cc(C2(S(C)(=O)=O)CC2)nc(-c2cccc3[nH]ccc23)n1 : 23
2) CS(=O)(=O)C1(c2cc(N3CCOCC3)nc(-c3cccc4[nH]ccc34)n2)CC1 : 21

(A) CS(=O)(=O)C1(c2cc(N3CCOCC3)nc(-c3cccc4[nH]ccc34)n2)CCNCC1
(B) CC(C)(c1cc(N2CCOCC2)nc(-c2cccc3[nH]ccc23)n1)S(C)(=O)=O
(C) CS(=O)(=O)C1(c2cc(N3CCOCC3)nc(-c3cccc4[nH]ccc34)n2)CCOCC1
// sort entries: Papp A→B at 10 µM, high to low Labels, requested order.
C, B, A

---

- test-description: Volume of distribution in rat
- Assay type: ADME, organism-based
- conditions-used: in vivo
assay-metric: Vd (L/kg)
# output: bare number, implied unit L/kg

In one line, give reported Vd of the entry "CS(=O)(=O)C1(c2cc(N3CCOCC3)nc(-c3cccc4[nH]ccc34)n2)CC1" .
2.1

---

- test-description: Solubility of the compound in phosphate buffer after 24 hrs at pH 7.4 by LC-UV-MS analysis
- Type: physicochemical
assay-metric: solubility at 24 h (µM)

(I) CS(=O)(=O)C1(c2cc(N3CCOCC3)nc(-c3cccc4[nH]ccc34)n2)CC1
(II) CS(=O)(=O)C1(c2cc(N3CCOCC3)nc(-c3cccc4[nH]ccc34)n2)CCNCC1
(III) CS(=O)(=O)C1(c2cc(N3CCOCC3)nc(-c3cccc4[nH]ccc34)n2)CCOCC1
Order the entries above by descending solubility at 24 h. Thanks in advance for listing the labels in the requested order.
II, I, III

---

- tested-on: Serine/threonine-protein kinase ATR (Homo sapiens)
assay-metric: IC50 (nM)

1) CS(=O)(=O)C1(c2cc(N3CCOCC3)nc(-c3cc(Cl)cc4[nH]ccc34)n2)CC1 : 16
2) CC(C)S(=O)(=O)C1(c2cc(N3CCOCC3)nc(-c3cccc4[nH]ccc34)n2)CC1 : 13
3) Cn1ccc2c(-c3nc(CS(C)(=O)=O)cc(N4CCOCC4)n3)cccc21 : 3300
4) CS(=O)(=O)C1(c2cc(N3CCOCC3)nc(-c3ccccc3)n2)CC1 : 360
5) CS(=O)(=O)C1(c2cc(N3CCOCC3)nc(-c3cccc(N)c3)n2)CC1 : 1200
6) CN1CCC(c2cc(N3CCOCC3)nc(-c3cccc4[nH]ccc34)n2)(S(C)(=O)=O)CC1 : 61
7) CS(=O)(=O)Cc1cc(N2CCOCC2)nc(-c2cccc3[nH]ccc23)n1 : 30

(I) Cc1ccc(-c2nc(N3CCOCC3)cc(C3(S(C)(=O)=O)CC3)n2)c2cc[nH]c12
(II) CS(=O)(=O)C1(c2cc(N3CCOCC3)nc(-c3cccc4c3CC(=O)N4)n2)CC1
Given I and given II , which shows the smaller recorded IC50? Return value: the label identifying the chosen record.
II
(II: 120 nM, I: 220 nM)

---

- tested-on: Serine/threonine-protein kinase ATR (Homo sapiens, UniProt Q13535)
- Sequence (Q13535 whole entry): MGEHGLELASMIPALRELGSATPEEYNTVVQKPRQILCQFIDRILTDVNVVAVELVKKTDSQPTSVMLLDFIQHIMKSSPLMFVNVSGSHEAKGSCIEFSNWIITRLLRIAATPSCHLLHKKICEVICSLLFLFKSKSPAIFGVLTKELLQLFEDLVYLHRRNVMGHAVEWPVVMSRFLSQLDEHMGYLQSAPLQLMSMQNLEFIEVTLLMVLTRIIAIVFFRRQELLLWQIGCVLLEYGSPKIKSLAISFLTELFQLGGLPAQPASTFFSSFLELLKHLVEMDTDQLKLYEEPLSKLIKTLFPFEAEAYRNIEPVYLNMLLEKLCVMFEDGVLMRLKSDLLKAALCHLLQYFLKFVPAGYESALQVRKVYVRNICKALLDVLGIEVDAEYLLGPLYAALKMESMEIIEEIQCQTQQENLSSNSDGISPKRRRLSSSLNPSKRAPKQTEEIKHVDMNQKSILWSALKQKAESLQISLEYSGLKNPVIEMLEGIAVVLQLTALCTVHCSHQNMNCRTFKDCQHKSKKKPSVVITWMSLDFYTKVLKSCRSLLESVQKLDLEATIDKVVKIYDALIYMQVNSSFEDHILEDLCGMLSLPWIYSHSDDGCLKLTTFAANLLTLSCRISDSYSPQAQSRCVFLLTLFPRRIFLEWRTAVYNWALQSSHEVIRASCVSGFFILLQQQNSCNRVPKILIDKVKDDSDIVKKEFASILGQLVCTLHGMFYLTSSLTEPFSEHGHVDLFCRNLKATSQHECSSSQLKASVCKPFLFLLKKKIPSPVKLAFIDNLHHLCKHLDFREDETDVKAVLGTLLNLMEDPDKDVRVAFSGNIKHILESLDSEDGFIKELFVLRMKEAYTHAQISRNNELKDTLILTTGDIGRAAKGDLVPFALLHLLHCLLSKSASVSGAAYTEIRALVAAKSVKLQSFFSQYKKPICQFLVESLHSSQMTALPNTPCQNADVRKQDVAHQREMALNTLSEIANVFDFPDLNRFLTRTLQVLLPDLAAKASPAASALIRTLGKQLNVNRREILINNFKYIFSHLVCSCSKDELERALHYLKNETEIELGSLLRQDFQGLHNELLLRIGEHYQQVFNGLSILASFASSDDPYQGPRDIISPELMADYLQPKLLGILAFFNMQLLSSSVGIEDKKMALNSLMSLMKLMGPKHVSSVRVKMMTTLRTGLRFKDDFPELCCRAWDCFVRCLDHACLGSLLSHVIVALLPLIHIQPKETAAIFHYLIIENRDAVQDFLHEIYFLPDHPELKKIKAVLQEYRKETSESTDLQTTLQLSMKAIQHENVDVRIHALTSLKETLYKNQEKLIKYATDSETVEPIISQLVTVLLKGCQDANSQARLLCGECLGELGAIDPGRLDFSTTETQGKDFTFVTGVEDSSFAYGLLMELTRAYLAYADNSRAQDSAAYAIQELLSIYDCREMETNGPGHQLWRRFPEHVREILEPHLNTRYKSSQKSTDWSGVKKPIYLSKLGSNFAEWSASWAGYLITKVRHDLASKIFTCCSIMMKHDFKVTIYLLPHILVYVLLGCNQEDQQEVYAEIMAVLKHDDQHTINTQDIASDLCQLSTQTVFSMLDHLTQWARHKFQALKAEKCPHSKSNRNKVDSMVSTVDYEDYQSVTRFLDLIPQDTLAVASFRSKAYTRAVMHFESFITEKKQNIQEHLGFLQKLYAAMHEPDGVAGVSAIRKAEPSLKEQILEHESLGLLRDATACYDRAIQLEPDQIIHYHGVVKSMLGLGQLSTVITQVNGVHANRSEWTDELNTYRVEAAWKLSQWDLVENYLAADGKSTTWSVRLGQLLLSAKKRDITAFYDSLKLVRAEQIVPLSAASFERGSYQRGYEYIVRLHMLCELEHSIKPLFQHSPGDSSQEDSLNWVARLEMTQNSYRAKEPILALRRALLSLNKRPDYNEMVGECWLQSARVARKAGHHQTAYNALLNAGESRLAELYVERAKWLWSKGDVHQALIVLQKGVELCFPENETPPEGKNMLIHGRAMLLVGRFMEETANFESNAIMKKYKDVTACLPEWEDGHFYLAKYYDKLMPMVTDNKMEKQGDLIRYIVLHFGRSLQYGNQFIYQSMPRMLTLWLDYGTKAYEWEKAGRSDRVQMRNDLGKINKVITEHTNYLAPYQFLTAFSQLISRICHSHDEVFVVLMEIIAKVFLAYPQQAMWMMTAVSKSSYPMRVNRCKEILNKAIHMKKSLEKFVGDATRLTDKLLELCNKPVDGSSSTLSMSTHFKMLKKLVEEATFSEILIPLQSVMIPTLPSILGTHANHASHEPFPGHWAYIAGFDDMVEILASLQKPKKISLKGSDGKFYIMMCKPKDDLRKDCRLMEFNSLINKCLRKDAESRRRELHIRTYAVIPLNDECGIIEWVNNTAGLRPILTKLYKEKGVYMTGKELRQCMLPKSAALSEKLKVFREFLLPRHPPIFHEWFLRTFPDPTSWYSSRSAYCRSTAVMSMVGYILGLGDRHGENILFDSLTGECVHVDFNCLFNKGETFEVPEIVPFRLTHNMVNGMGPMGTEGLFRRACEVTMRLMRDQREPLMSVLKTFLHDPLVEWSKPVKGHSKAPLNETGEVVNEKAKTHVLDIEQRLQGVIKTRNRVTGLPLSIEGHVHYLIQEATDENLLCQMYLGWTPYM
- Type: cell-based, HT-29
pIC50: −log10 of the molar value.
assay-metric: pIC50

(a) O=S(=O)(C1CCNCC1)C1(c2cc(N3CCOCC3)nc(-c3cccc4[nH]ccc34)n2)CC1
(b) CS(=O)(=O)C1(c2cc(N3CCOCC3)nc(-c3cc(C(N)=O)cc4[nH]ccc34)n2)CC1
(c) CS(=O)(=O)C1(c2cc(N3CCOCC3)nc(-c3cccc4[nH]ccc34)n2)CCNCC1
# rank above entries by pIC50 (max first, min last) Response format: the labels, sorted as the prompt asks.
c, a, b
(c: 6.38, a: 5.54, b: 5.04)

---

- tested-on: Phosphatidylinositol 4,5-bisphosphate 3-kinase catalytic subunit alpha isoform (Homo sapiens)
- Sequence (P42336 whole entry, canonical isoform): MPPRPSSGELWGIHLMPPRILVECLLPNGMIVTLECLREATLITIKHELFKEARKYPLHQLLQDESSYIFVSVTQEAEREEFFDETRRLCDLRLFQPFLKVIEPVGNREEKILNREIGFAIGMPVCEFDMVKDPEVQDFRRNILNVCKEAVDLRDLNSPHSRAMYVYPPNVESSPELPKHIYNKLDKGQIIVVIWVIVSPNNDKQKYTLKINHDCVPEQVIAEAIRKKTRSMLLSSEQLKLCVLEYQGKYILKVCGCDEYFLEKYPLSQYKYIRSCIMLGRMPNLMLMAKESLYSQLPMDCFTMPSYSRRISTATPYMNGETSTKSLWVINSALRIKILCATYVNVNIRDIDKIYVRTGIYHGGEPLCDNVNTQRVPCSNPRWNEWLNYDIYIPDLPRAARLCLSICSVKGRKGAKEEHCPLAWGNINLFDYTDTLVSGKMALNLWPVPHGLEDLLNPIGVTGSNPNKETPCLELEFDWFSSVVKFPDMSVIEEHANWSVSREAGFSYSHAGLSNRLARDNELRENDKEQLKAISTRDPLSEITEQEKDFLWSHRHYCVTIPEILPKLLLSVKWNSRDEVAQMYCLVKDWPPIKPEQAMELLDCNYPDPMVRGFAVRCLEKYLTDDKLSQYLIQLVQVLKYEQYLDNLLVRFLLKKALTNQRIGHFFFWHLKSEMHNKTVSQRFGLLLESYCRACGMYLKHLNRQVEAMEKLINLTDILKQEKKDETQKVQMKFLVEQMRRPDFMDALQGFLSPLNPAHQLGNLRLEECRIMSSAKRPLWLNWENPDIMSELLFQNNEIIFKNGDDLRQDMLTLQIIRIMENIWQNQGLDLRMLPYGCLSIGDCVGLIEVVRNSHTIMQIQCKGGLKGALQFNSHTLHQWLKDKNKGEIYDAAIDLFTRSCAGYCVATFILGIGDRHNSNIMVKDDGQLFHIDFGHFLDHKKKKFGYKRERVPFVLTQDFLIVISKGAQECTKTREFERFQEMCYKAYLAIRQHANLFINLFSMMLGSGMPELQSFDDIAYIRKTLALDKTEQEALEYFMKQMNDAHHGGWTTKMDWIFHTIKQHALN
- test-description: Inhibition of PI3Kalpha (unknown origin)
assay-metric: IC50 (nM)

1. CS(=O)(=O)Cc1cc(N2CCOCC2)nc(-c2cccc3[nH]ccc23)n1 : 3800
2. CC(C)(c1cc(N2CCOCC2)nc(-c2cccc3[nH]ccc23)n1)S(C)(=O)=O : 1600

(P) CS(=O)(=O)C1(c2cc(N3CCOCC3)nc(-c3cccc4[nH]ccc34)n2)CCOCC1
(Q) CS(=O)(=O)C1(c2cc(N3CCOCC3)nc(-c3cccc4[nH]ccc34)n2)CCNCC1
(R) CS(=O)(=O)C1(c2cc(N3CCOCC3)nc(-c3cccc4[nH]ccc34)n2)CC1
Please put the entries in order of rising IC50. List the labels, following the order given in the request.
R, P, Q

---

- tested-on: Serine/threonine-protein kinase ATR (Homo sapiens, UniProt Q13535)
- Assay type: cell-based, HT-29
pIC50: −log10 of the molar value.
assay-metric: pIC50

1) CC[C@@H]1COCCN1c1cc(C2(S(C)(=O)=O)CC2)nc(-c2cccc3[nH]ccc23)n1 : 5.36
2) CS(=O)(=O)C1(c2cc(N3CCOCC3)nc(-c3cc(Cl)cc4[nH]ccc34)n2)CC1 : 6.14
3) Cc1cc2c(-c3nc(N4CCOCC4)cc(C4(S(C)(=O)=O)CC4)n3)cccc2[nH]1 : 5.60

(1) Cc1ccc(-c2nc(N3CCOCC3)cc(C3(S(C)(=O)=O)CC3)n2)c2cc[nH]c12
(2) Cc1cc(-c2nc(N3CCOCC3)cc(C3(S(C)(=O)=O)CC3)n2)c2cc[nH]c2c1
Between 1 and 2 , whose measured pIC50 reads higher? Label of pick, please.
2

(a) CS(=O)(=O)C1(c2cc(N3CCOCC3)nc(-c3cccc4[nH]ncc34)n2)CC1
(b) O=S(=O)(c1ccccc1)C1(c2cc(N3CCOCC3)nc(-c3cccc4[nH]ccc34)n2)CC1
(c) O=S(=O)(c1ccccn1)C1(c2cc(N3CCOCC3)nc(-c3cccc4[nH]ccc34)n2)CC1
(d) CN1CCC(c2cc(N3CCOCC3)nc(-c3cccc4[nH]ccc34)n2)(S(C)(=O)=O)CC1
Sort (4 compounds) by pIC50: min first. Write out the labels following the order that was asked for.
a, d, c, b
(a: 4.89, d: 5.43, c: 5.70, b: 6.23)

(P) CS(=O)(=O)C1(c2cc(N3CCOCC3)nc(-c3cccc4c3CC(=O)N4)n2)CC1
(Q) CS(=O)(=O)C1(c2cc(N3CCOCC3)nc(-c3cc(C#N)cc4[nH]ccc34)n2)CC1
(R) CS(=O)(=O)C1(c2cc(N3CCOCC3)nc(-c3cccc4[nH]ccc34)n2)CCOCC1
Arrange items by their pIC50 values in increasing order. Output spec: a listing of the labels in the requested order.
P, Q, R
(P: 4.80, Q: 5.82, R: 6.74)

(1) CS(=O)(=O)Cc1cc(N2CCOCC2)nc(-c2cccc3[nH]ccc23)n1
(2) O=S(=O)(C1CCOCC1)C1(c2cc(N3CCOCC3)nc(-c3cccc4[nH]ccc34)n2)CC1
Could you kindly indicate whether 1 or 2 has the higher pIC50 value? Refer to your chosen entry by its label in the reply.
1
